Data credit: PubChem BioAssay

System: Fibrinogen (Alexa647-labelled)
ASSAY: Alexa647-fibrinogen binding to printed small molecules – biochemical, small-molecule microarray, 635/667 nm fluorescence, artefact control for SMM control-protein annotation, profiling panel (AID 1131);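 also: z-score merges 667 nm fluorescence with per-spot signal-to-noise over triplicate slides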
ASSAY_CONTEXT: fibrinogen-A647 binding fluorescence, higher = more signal
READOUT: composite z-score
Quick one: just the number, no unit, thanks!

Worked set:
- COMPOUND: "C=CCOC(=O)[C@H]1[C@@H]2C(=O)O[C@@H](c3ccccc3)[C@@H](c3ccccc3)N2[C@@H](c2ccc(OCCOC(=O)[C@H]3C[C@H]4C(=O)N[C@@H](CCCCN(C)C)C(=O)N4[C@H]3c3cccc(OCCO)c3)cc2)[C@]12C(=O)Nc1ccc(I)cc12"
  OBSERVED_MEASUREMENT: 0.571
- COMPOUND: "COC(=O)[C@@]1(Cc2ccc(F)cc2)[C@H]2c3cc(C(=O)N(C)C)n(Cc4cc(C)n(C)n4)c3C[C@H]2CN1C(=O)c1ccccc1"
  OBSERVED_MEASUREMENT: 0.795
- COMPOUND: "COCCCNC(=O)[C@@]1(Cc2ccccc2)N=C(c2ccc(OCCCO)cc2)O[C@H]1c1ccccc1CN=[N+]=[N-]"
  OBSERVED_MEASUREMENT: 0.913
- COMPOUND: "COC(=O)[C@]1(Cc2ccccc2)N=C(c2ccc(OCCCO)cc2)O[C@@H]1c1ccccc1N=[N+]=[N-]"
  OBSERVED_MEASUREMENT: 0.863
- COMPOUND: "O=C1OCCC/C=C\\[C@H]2OC34C=CCN(c5ccc6ccccc6c5)C(=O)[C@H]3N(CCCCCO)C(=O)[C@@H]4C12 (stereo not given in full)"
  OBSERVED_MEASUREMENT: -0.582
- COMPOUND: "CC(C)CCC[C@@H](C)[C@H]1CC[C@@]2(C)C3=C(CC[C@]12C)[C@@]1(C)CC[C@H](OC(=O)c2ccc(C(F)(F)F)nc2)C(C)(C)C1CC3 (stereo not given in full)"
  OBSERVED_MEASUREMENT: 0.723
- COMPOUND: "CN1C(=O)C2C=CC(C(O)C=Cc3ccc([N+](=O)[O-])cc3)N(Nc3ccccc3)C2C1=O (stereo not given)"
  OBSERVED_MEASUREMENT: 1.01
- COMPOUND: "COc1ccc([C@H]2C[C@H]3C(I)=C[C@@H]2C(=O)[C@]32CO2)cc1"
  OBSERVED_MEASUREMENT: -0.193
- COMPOUND: "C=C(CCCC)C(=O)CC[C@H](OC(=O)c1cccnc1)c1ccc(OCCO)cc1"
  OBSERVED_MEASUREMENT: 0.0895
- COMPOUND: "C#CCN1[C@@H](Cc2ccc(O)cc2)C(=O)O[C@H](Cc2ccccc2)[C@@H]1/C=C/C1CC1"
  OBSERVED_MEASUREMENT: 0.123

Q. Checklist item: composite z-score tested on Fibrinogen (Alexa647-labelled), entry `CCOC(=O)C1=CC[C@H]2C(=O)N(c3ccccc3)C(=O)[C@@H]12` , value?
A. 1.04

Q. One more compound: `CC(C)NC(=O)[C@@H]1c2ccccc2C(=O)N(C(C)C)[C@H]1c1ccc(CO)cc1`
A. -0.782

Q. Same question, `COC(=O)C[C@H]1O[C@@H](CCc2ccccc2)[C@@H](C)[C@@H]1[Si](C)(C)c1ccc(OC)cc1` this time
A. -0.755

Q. And what about the compound CS(=O)(=O)CCOC(=O)C1=CC(CCCO)=CC(c2ccc(CN3CCCC3)cc2)N(Cc2cccc(OC(F)(F)F)c2)C=C1C(=O)OCCS(C)(=O)=O (stereo not given) ?
A. 0.675

Q. And what about the compound C=C(C)[C@@H]1CC=C(C(O)C2C=CC3C(=O)NC(=O)C3N2Nc2ccc(Cl)cc2Cl)CC1 (stereo not given in full) ?
A. 1
